# target.desc: human coagulation factor XI (FXI) (human, UniProt P03951 19-625)
# experiment.description: cell-based or functional assay
Below, each of the binders is paired with its reported APTT (% NPP) value.
Put your answer as a value accompanied by its unit after it.

binder	APTT (% NPP)
composite human mAb VH2/Vκ1 (antibody, V domains shown, Human IgG4 (S241P hinge mutant) heavy chain and human kappa light chain) VH: QVQLVQSGSELKKPGASVKLSCKASGYTFTRYWMHWVKQAPGQGLEWIGNIYPDSDSTNYDEKFRTRATLTADTSTSTAYMELSSLRSEDTAVYYCTRMGFYAMDYWGQGTTVTVSS VL: NIVMTQSPSSLSASVGDRVTITCKASENVVTYVSWFQQKPGQAPKLLIYGASNRYTGVPDRFTGSGSATDFTLTISSLQAEDVADYHCGQSYSYPLTFGQGTKLEIKR	252 % NPP
composite human mAb VH1/Vκ1 (antibody, V domains shown, Human IgG4 (S241P hinge mutant) heavy chain and human kappa light chain) VH: QVQLVQSGSELKKPGASVKLSCKASGYTFTRYWMHWVKQAHGQGLEWIGNIYPDSDSTNYDEKFRTRATLTADTSTSTAYMHLSSLTSEDSAVYYCTRMGFYAMDYWGQGTSVTVSS VL: NIVMTQSPSSLSASVGDRVTITCKASENVVTYVSWFQQKPGQAPKLLIYGASNRYTGVPDRFTGSGSATDFTLTISSLQAEDVADYHCGQSYSYPLTFGQGTKLEIKR	253 % NPP

[in] # get_value(readout='APTT (% NPP)', item= composite human mAb VH2/Vκ3 (antibody, V domains shown, Human IgG4 (S241P hinge mutant) heavy chain and human kappa light chain) VH: QVQLVQSGSELKKPGASVKLSCKASGYTFTRYWMHWVKQAPGQGLEWIGNIYPDSDSTNYDEKFRTRATLTADTSTSTAYMELSSLRSEDTAVYYCTRMGFYAMDYWGQGTTVTVSS VL: DIVMTQSPSSLSASVGDRVTITCKASENVVTYVSWFQQKPGQAPKLLIYGASNRYTGVPDRFSGSGSGTDFTLTISSLQAEDVADYHCGQSYSYPLTFGQGTKLEIKR )
[out] 247 % NPP
